Values were extracted from patent US4824843A.

Molecular target: acyl-CoA: cholesterol acyltransferase (ACAT) (Oryctolagus cuniculus, UniProt G1SFD9)
Sequence (G1SFD9 1-524): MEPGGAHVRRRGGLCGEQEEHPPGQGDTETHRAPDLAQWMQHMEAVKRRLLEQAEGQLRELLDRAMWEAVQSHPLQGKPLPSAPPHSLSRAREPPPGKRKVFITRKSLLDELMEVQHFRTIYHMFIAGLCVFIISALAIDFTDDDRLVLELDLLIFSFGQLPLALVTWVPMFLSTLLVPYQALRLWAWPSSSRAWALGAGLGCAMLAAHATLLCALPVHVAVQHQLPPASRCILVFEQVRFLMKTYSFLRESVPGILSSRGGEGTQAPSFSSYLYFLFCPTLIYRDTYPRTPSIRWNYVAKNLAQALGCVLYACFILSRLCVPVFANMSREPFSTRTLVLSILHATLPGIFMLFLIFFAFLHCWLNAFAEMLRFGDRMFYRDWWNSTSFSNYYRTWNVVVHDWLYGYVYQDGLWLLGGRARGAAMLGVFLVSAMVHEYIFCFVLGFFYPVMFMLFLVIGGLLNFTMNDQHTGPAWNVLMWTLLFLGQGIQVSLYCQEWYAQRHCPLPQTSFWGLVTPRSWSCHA
Endpoint label: IC50
Enter the number, and then the unit.

Return reported IC50; argument: COc1ccc(CC2=NC(C)(C)CO2)cc1NC(=O)C(C)(C)CCCOc1cc(C)ccc1C [Example 3]
5.5 µM

* * *

IC50 values for the compounds below.
Molecular target: acyl-CoA: cholesterol acyltransferase (ACAT) (Oryctolagus cuniculus, UniProt G1SFD9)
Sequence (G1SFD9 1-524): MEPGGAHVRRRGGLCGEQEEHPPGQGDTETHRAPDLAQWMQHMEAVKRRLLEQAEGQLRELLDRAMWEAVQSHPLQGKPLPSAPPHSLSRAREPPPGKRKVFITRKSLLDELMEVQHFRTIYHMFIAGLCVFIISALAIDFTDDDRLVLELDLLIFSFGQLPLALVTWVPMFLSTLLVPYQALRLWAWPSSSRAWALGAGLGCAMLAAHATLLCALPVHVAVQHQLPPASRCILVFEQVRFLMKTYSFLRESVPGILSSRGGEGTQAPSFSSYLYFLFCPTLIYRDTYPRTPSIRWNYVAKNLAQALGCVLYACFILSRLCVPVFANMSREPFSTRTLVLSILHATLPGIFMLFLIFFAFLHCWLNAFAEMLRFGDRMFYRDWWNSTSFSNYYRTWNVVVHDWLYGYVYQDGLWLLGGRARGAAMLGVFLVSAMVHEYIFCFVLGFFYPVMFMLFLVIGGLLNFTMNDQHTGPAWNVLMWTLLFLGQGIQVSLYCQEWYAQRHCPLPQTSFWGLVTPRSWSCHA
Structures can show the parent of a compound that is named as a salt.
Just the number please, in µM, no unit attached.

Field: example entries. Status: answers known.
| Compound | Units label | Recorded result |
| --- | --- | --- |
| Cc1ccc(C)c(OCCCC(C)(C)C(=O)Nc2cccc(OCC3=NC(C)(C)CO3)c2)c1 [Example 3a] | µM | 9.2 |
| Cc1ccc(C)c(OCCCC(C)(C)C(=O)Nc2cccc(C3=NC(C)(C)CO3)c2C)c1 [Example 1] | µM | 24 |
| COc1ccc(C2=NC(C)(C)CO2)cc1NC(=O)C(C)(C)CCCOc1cc(C)ccc1C [Example 4b] | µM | 9 |
| COC(=N)c1cccc(NC(=O)C(C)(C)CCCOc2cc(C)ccc2C)c1 [Example 4g, monohydrochloride] | µM | 13 |
| Cc1ccc(C)c(OCCCC(C)(C)C(=O)Nc2cccc(C3=NC(C)(C)CO3)c2)c1 [Example 1a] | µM | 22 |

Next item in the queue.
Return reported IC50; argument: COc1ccc(/C=C/C2=NC(C)(C)CO2)cc1NC(=O)C(C)(C)CCCOc1cc(C)ccc1C [Example 2b]
8
